- Test System: T1, human alpha fetoprotein (hAFP158) peptide on HLA-A2 (human)
- T1 peptide: FMNKFIYEI
- Protocol Text: multimer staining
Measured Property: binding result

mTCR-11 (TCR, V domains shown) Valpha: QQKVQQSPESLIVPEGGMASLNCTSSDRNVDYFWWYRQHSGKSPKMLMSIFSNGEKEEGRFTVHLNKASLHTSLHIRDSQPSDSALYLCAASKTGGYKVVFGSGTRLLVSP Vbeta: EAAVTQSPRNKVTVTGGNVTLSCRQTNSHNYMYWYRQDTGHGLRLIHYSYGAGNLQIGDVPDGYKATRTTQEDFFLLLELASPSQTSLYFCASSDAGTSQNTLYFGAGTRLSVL
recognises
mTCR-1 (TCR, V domains shown) Valpha: QQKVQQSPESLIVPEGGMASLNCTSSDRNVDYFWWYRQHSGKSPKMLMSIFSNGEKEEGRFTVHLNKASLHTSLHIRDSQPSDSALYLCAASITNAYKVIFGKGTHLHVLP Vbeta: EAAVTQSPRNKVTVTGGNVTLSCRQTNSHNYMYWYRQDTGHGLRLIHYSYGAGNLQIGDVPDGYKATRTTQEDFFLLLELASPSQTSLYFCASSDAGTSQNTLYFGAGTRLSVL
recognises
mTCR-10 (TCR, V domains shown) Valpha: QQKVQQSPESLIVPEGGMASLNCTSSDRNVDYFWWYRQHSGKSPKMLMSIFSNGEKEEGRFTVHLNKASLHTSLHIRDSQPSDSALYLCAASIVGGYKVVFGSGTRLLVSP Vbeta: EAAVTQSPRNKVTVTGGNVTLSCRQTNSHNYMYWYRQDTGHGLRLIHYSYGAGNLQIGDVPDGYKATRTTQEDFFLLLELASPSQTSLYFCASSDHGTGQNTLYFGAGTRLSVL
recognises
